Could you please report measured Th-T assay plate reading, mean of three wells (Supplementary Fig. 47) for the items listed next?
- assay target: Aβ42 (Homo sapiens, UniProt P05067)
- Sequence (P05067 672-713): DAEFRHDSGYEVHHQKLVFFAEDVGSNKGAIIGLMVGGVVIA
- assay details: Th-T (thioflavin-T) assay of Aβ42 aggregation
- Type: biochemical
- condition context: measurement M13; source data, Ab alone and No Ab as controls
Give bare numbers.

molecule: C=C1CC[C@H]2[C@]3(C)C[C@H](C=C(C)C)O[C@H]3CC[C@]2(C)[C@@H]1Cc1c(O)c(C)c(C)oc1=O [Compound 6, subglutinol B]
recorded number: 0.7872

molecule: C=C1CCC2C(C)(CC(=O)C=C(C)C)C(O)CCC2(C)C1Cc1c(OC)oc(CO)c(C)c1=O (stereo not drawn) [Compound 19]
recorded number: 0.8322

molecule: C=C1CC[C@@H]2[C@](C)(CC[C@H]3O[C@H](C=C(C)C)C[C@@]23C)[C@@H]1Cc1c(O)c(C)c(C)oc1=O [Compound 10, higginsianin A]
recorded number: 0.8524

molecule: C=C1CC[C@H]2[C@]3(C)C[C@@H](C=C(C)C)O[C@H]3CC[C@]2(C)[C@@H]1Cc1c(OC)oc(CO)c(C)c1=O [Compound 17]
recorded number: 2.227

Parameter requested: Th-T assay plate reading, mean of three wells (Supplementary Fig. 47). Apply to each item below.
1. C=C1CCC2C(C)(CC(=O)C=C(C)C)C(O)CCC2(C)C1Cc1c(OC)oc(C)c(C)c1=O (stereo not drawn) [Compound 25]
2. C=C1CCC2C(C)(CCC=C(C)C)C(O)CCC2(C)C1Cc1c(OC)oc(CO)c(C)c1=O (stereo not drawn) [Compound 12]

1.145
2.302
